Attribution: ChEMBL document CHEMBL4814006

# Tested on: Poly(dA-dU)oligonucleotide
# Method description: Binding affinity to polyA-polyU RNA (unknown origin) assessed as binding constant in sodium cacodylate buffer at pH 7 by fluorescence spectroscopy
# Assay type: nucleic-acid assay
Attribute measured: log Ks
Give the figure by itself; no unit, no explanation.

Below, 5 molecules whose answers are already recorded.
CC(C)CNc1c(C#N)c2nc3cccnc3n2c2ccccc12; 5.3
CN(C)CCCNc1ccc2cc(C#N)c3nc4cccnc4n3c2c1; 6.3
N#Cc1c(N2CCNCC2)c2ccc(N3CCNCC3)cc2n2c1nc1cccnc12; 6.6
CC(C)CNc1c(C#N)c2nc3ncccc3n2c2ccccc12; 4.7
CN(C)CCCNc1ccc2cc(C#N)c3nc4ncccc4n3c2c1; 5.5

Now let's try a different one.
Which log Ks value belongs to N#Cc1c(N2CCNCC2)c2ccc(N3CCNCC3)cc2n2c1nc1ncccc12 ? 6.5
